Every entry's value here was drawn from paper PMC11859928.

Tested on: HOP-62
Test: NCI one-dose assay
Assay type: cell-based
Conditions: Homo sapiens, HOP-62, Non-small cell lung cancer, read-out: Cell growth inhibition %
Use 50% as the dividing line for inhibition at 10 µM, with the line itself on the condition met side and lower values as condition not met.

Please review the following examples before continuing.
QUERY: Check the entry COc1ccc(C(=O)CSc2nnc(-c3c[nH]c4ccccc34)n2-c2ccccc2)cc1 [Compound 6g] : does inhibition at 10 µM equal or exceed 50%?
RESULT: condition met

QUERY: Check the entry C=CCn1c(SC/C(=N\O)c2ccc(Cl)cc2)nnc1-c1c[nH]c2ccccc12 [Compound 7e] : does inhibition at 10 µM equal or exceed 50%?
RESULT: condition not met

QUERY: Check the entry C=CCn1c(SCC(=O)c2ccc(Cl)cc2)nnc1-c1c[nH]c2ccccc12 [Compound 6e] : does inhibition at 10 µM equal or exceed 50%?
RESULT: condition not met

QUERY: Check the entry O/N=C(\CSc1nnc(-c2c[nH]c3ccccc23)n1-c1ccccc1)c1ccccc1 [Compound 7f] : does inhibition at 10 µM equal or exceed 50%?
RESULT: condition not met

---
QUERY: Check the entry Cc1ccc(C(=O)CSc2nnc(-c3c[nH]c4ccccc34)n2-c2ccccc2)cc1 [Compound 6h] : does inhibition at 10 µM equal or exceed 50%?
RESULT: condition met

QUERY: Check the entry C=CCn1c(SC/C(=N\O)c2ccccc2)nnc1-c1c[nH]c2ccccc12 [Compound 7a] : does inhibition at 10 µM equal or exceed 50%?
RESULT: condition not met

QUERY: Check the entry O=C(CSc1nnc(-c2c[nH]c3ccccc23)n1-c1ccccc1)c1ccc(Cl)cc1 [Compound 6j] : does inhibition at 10 µM equal or exceed 50%?
RESULT: condition met

QUERY: Check the entry C=CCn1c(SCC(=O)c2ccccc2)nnc1-c1c[nH]c2ccccc12 [Compound 6a] : does inhibition at 10 µM equal or exceed 50%?
RESULT: condition not met

###

System: Ovarian cancer subpanel
Experiment: NCI five-dose assay, subpanel mean
Type: cell-based, human
Conditions: Ovarian cancer subpanel
parameter: GI50 Selectivity Ratio (MID a/MID b)
No unit in the answer, only the number.

QUERY: Look up GI50 Selectivity Ratio (MID a/MID b): Cc1ccc(/C(CSc2nnc(-c3c[nH]c4ccccc34)n2-c2ccccc2)=N/O)cc1 [Compound 7h]
RESULT: 1.34

QUERY: Look up GI50 Selectivity Ratio (MID a/MID b): O/N=C(\CSc1nnc(-c2c[nH]c3ccccc23)n1-c1ccccc1)c1ccc(Cl)cc1 [Compound 7j]
RESULT: 1.01

---
QUERY: Look up GI50 Selectivity Ratio (MID a/MID b): Cc1ccc(C(=O)CSc2nnc(-c3c[nH]c4ccccc34)n2-c2ccccc2)cc1 [Compound 6h]
RESULT: 1.10

QUERY: Look up GI50 Selectivity Ratio (MID a/MID b): O/N=C(\CSc1nnc(-c2c[nH]c3ccccc23)n1-c1ccccc1)c1ccc(Br)cc1 [Compound 7i]
RESULT: 1.00

###

System: RPMI-8226
Assay: NCI one-dose assay
Type: cell-based
Conditions: Homo sapiens, RPMI-8226, Leukemia, read-out: Cell growth inhibition %
Measured inhibition at 10 µM accompanies every entry in the list below.

These recorded examples may help you get a feel for the data.
QUERY: Give inhibition at 10 µM (RPMI-8226) of the following compound: Cc1ccc(/C(CSc2nnc(-c3c[nH]c4ccccc34)n2-c2ccccc2)=N/O)cc1 [Compound 7h]
RESULT: 119%

QUERY: Give inhibition at 10 µM (RPMI-8226) of the following compound: C=CCn1c(SCC(=O)c2ccc(Cl)cc2)nnc1-c1c[nH]c2ccccc12 [Compound 6e]
RESULT: 7.71%

QUERY: Give inhibition at 10 µM (RPMI-8226) of the following compound: C=CCn1c(SCC(=O)c2ccc(C)cc2)nnc1-c1c[nH]c2ccccc12 [Compound 6c]
RESULT: 13.8%

---
QUERY: Give inhibition at 10 µM (RPMI-8226) of the following compound: C=CCn1c(SC/C(=N\O)c2ccc(C)cc2)nnc1-c1c[nH]c2ccccc12 [Compound 7c]
RESULT: 8.76%

QUERY: Give inhibition at 10 µM (RPMI-8226) of the following compound: COc1ccc(/C(CSc2nnc(-c3c[nH]c4ccccc34)n2-c2ccccc2)=N/O)cc1 [Compound 7g]
RESULT: 90.2%

QUERY: Give inhibition at 10 µM (RPMI-8226) of the following compound: O/N=C(\CSc1nnc(-c2c[nH]c3ccccc23)n1-c1ccccc1)c1ccccc1 [Compound 7f]
RESULT: 68.1%

QUERY: Give inhibition at 10 µM (RPMI-8226) of the following compound: C=CCn1c(SCC(=O)c2ccc(OC)cc2)nnc1-c1c[nH]c2ccccc12 [Compound 6b]
RESULT: 16.8%

QUERY: Give inhibition at 10 µM (RPMI-8226) of the following compound: O=C(CSc1nnc(-c2c[nH]c3ccccc23)n1-c1ccccc1)c1ccccc1 [Compound 6f]
RESULT: 18.7%
